Molecular target: T1, HLA-DR4w4 (DRB1*0401) (human)
T1 chain 1: not shown
T1 chain 2: not shown
Experiment: competition vs 125I probe peptide, purified HLA-DR, gel filtration
binding affinity ratio (IC50 standard peptide / IC50 test peptide) vs 0.006: at or above is Y, below is N.

FPDLGVRVCEKMALY (modifications not checked) [HCV peptide … (HCV NS5 2615)] : N
IDTLTCGFADLMGYI (modifications not checked) [HCV peptide … (HCV Core 123)] : N
VVLLFLLLADARVCS (modifications not checked) [HCV peptide … (HCV NS1/E2 724)] : Y
LHGLSAFSLHSYSPG (modifications not checked) [HCV peptide … (HCV NS5 2919)] : Y

Continue with the next binder.
# check: binding affinity ratio (IC50 standard peptide / IC50 test peptide) of ASQLSAPSLKATCTT (modifications not checked) [HCV peptide … (HCV NS5 2208)] is greater than or equal to 0.006
N
